The reported numbers originate from patent EP2608671B1.

# Tested on: A375
# METHOD_SUMMARY: SRB cell growth inhibition (cytotoxicity) assay
# Assay type: cell-based, human
# EXPERIMENTAL_PARAMETERS: Homo sapiens, A-375, read-out: IC50 ± SEM (nM) (n=3), A375; Table 14A
Would you mind telling me the reported IC50 of each entry?
Give bare numbers, in nM.

These recorded examples may help you get a feel for the data.
COMPOUND: O=C(c1ccc(F)cc1)c1cn(S(=O)(=O)c2ccccc2)c(-c2ccc(Cl)cc2)n1 [11fb]
UNIT_LABEL: nM
IC50: 88
--
COMPOUND: CC(C)C[C@H](NC(=O)[C@H](Cc1ccccc1)NC(=O)c1cnccn1)B(O)O [Bortezomib, reference compound]
UNIT_LABEL: nM
IC50: 8

Shift focus to the following entry.
Identify measured IC50 associated with COc1ccc(-c2nc(C(=O)c3ccc(F)cc3)cn2S(=O)(=O)c2ccccc2)cc1 [11cb] 36
